Data credit: paper PMC5471521

# ASSAY PROTOCOL: PK analysis in male Sprague-Dawley rats
# Type: in vivo
# MEASUREMENT CONTEXT: male, Sprague-Dawley, plasma, iv; rat, i.v. 2 mg/kg, hydrochloride salt forms; read-out: Vss
For each of the compounds below, state its Vd.
Answer with a number only, understood to be in L/kg.

Prompt: Record request: Vd value, item NC(=O)c1ccc(OCCNC[C@H](O)COc2ccc3c(c2)OC[C@@H](COCC2CC2)O3)cc1 [NDD-713]
Response: 4.3

Prompt: Record request: Vd value, item O=C1NCc2cc(OCCNC[C@H](O)COc3ccc4c(c3)OC[C@@H](COCC3CC3)O4)ccc21 [NDD-825]
Response: 6
